Reference for the values: patent US12187759B2

Target: human TLR7 (Homo sapiens)
Assay: TLR7 reporter cell assay (HEK293 cells stably expressing human TLR7 with NF-κB-driven SEAP reporter)
Settings: fit of SEAP dose response; ymax from 28.5 μM resiquimod; 15-24 hours
pEC50: −log10 of the molar value.
Recorded Endpoint: pEC50

C#CC[C@H](O)[C@@H]1C[C@@H](O)[C@H](n2c(=O)n(CC#C)c3c(=O)[nH]c(N)nc32)O1
3.94

(1) C#CCn1c(=O)n([C@@H]2O[C@H]([C@@H](O)CC)[C@H](F)[C@H]2O)c2nc(N)[nH]c(=O)c21
(2) CCCCn1c(=O)n([C@@H]2O[C@H]([C@@H](O)C(F)(F)F)C[C@H]2O)c2nc(N)[nH]c(=O)c21
Record comparison, field pEC50: mark the lower of 1 and 2 . The response must carry the label of the picked entry.
2

====

Biological target: UniProtKB Q9NYK1
Experiment: TLR7 reporter cell assay (HEK293 cells stably expressing human TLR7 with NF-κB-driven SEAP reporter)
Conditions: fit of SEAP dose response; ymax from 28.5 μM resiquimod; 15-24 hours
pEC50: −log10 of the molar value.
Recorded Endpoint: pEC50

(A) C#CCn1c(=O)n([C@@H]2O[C@H]([C@@H](O)CF)C[C@H]2O)c2nc(N)[nH]c(=O)c21 [Compound 24]
(B) CC[C@H](O)[C@@H]1C[C@@H](O)[C@H](n2c(=O)n(C[C@H](C)O)c3c(=O)[nH]c(N)nc32)O1 (single isomer, unassigned) [Compound 34]
(C) Nc1nc2c(c(=O)[nH]1)n(CCC(F)(F)F)c(=O)n2[C@@H]1O[C@H]([C@@H](O)C(F)(F)F)C[C@H]1O [Compound 28]
For the molecules shown above, give the order from largest pEC50 to smallest. // rank by listing labels in the order requested
B, A, C

====

Target: human TLR7 (Homo sapiens, UniProt Q9NYK1)
Construct: host or cells: HEK293
Assay: TLR7 reporter cell assay (HEK293 cells stably expressing human TLR7 with NF-κB-driven SEAP reporter)
Type: cell-based
Conditions: HEK293; 500 μM compound; SEAP activity (OD 650 nm) relative to 28.5 μM resiquimod; 15-24 hours; read-out: Response at 500 μM Compound as a Percent of Resiquimod Response
Recorded Endpoint: Emax at 500 µM (%)

A selection of reference data follows.
CC[C@H](O)[C@@H]1C[C@@H](O)[C@H](n2c(=O)n(C[C@@H](C)O)c3c(=O)[nH]c(N)nc32)O1 (single isomer, unassigned) [Compound 33]
73
CC[C@H](O)[C@@H]1C[C@@H](O)[C@H](n2c(=O)n(CCO)c3c(=O)[nH]c(N)nc32)O1 [Compound 32]
68
CC[C@H](O)[C@@H]1C[C@@H](O)[C@H](n2c(=O)sc3c(=O)[nH]c(N)nc32)O1 [Compound A, reference compound]
74

(1) CC[C@H](O)[C@@H]1C[C@@H](O)[C@H](n2c(=O)n(CC(F)(F)F)c3c(=O)[nH]c(N)nc32)O1 [Compound 43]
(2) CC[C@H](O)[C@H]1O[C@@H](n2c(=O)n(CCSC)c3c(=O)[nH]c(N)nc32)[C@H](O)[C@H]1F [Compound 46]
Looking at 1 and 2 , which one comes out lower in Emax at 500 µM terms? State your choice using its label.
2

====

Biological target: human TLR7 (Homo sapiens)
Sequence (Q9NYK1 27-1049): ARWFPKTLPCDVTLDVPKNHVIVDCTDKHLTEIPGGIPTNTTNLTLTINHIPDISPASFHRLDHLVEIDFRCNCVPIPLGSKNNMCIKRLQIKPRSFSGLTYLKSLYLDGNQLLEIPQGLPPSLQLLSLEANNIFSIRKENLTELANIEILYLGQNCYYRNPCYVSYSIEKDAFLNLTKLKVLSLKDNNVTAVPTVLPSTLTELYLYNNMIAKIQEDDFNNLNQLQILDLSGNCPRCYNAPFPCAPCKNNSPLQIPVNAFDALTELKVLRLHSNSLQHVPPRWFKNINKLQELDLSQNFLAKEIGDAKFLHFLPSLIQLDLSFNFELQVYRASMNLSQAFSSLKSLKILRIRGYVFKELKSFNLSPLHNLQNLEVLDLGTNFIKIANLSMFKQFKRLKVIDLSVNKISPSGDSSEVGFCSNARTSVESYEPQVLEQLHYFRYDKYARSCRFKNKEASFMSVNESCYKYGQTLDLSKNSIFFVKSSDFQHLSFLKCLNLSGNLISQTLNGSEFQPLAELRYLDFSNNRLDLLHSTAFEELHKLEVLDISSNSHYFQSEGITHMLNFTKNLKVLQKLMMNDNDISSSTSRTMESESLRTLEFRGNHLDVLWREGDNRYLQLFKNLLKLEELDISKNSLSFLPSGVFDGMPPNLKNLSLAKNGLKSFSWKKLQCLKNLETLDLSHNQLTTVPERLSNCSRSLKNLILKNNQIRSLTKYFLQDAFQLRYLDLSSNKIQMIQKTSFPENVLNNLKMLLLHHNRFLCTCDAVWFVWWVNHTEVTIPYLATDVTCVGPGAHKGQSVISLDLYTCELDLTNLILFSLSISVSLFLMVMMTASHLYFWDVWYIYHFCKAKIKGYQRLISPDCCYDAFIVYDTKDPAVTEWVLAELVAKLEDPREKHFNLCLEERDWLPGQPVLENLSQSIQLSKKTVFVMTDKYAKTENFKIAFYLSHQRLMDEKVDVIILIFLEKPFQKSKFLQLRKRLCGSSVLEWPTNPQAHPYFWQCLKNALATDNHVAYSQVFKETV
Assay: TLR7 reporter cell assay (HEK293 cells stably expressing human TLR7 with NF-κB-driven SEAP reporter)
Conditions: fit of SEAP dose response; ymax from 28.5 μM resiquimod; 15-24 hours
Recorded Endpoint: EC50 (µM)

C#CCn1c(=O)n([C@@H]2O[C@H](C(=O)CC)C[C@H]2O)c2nc(N)[nH]c(=O)c21 [Compound 37]
462
CC[C@H](O)[C@@H]1C[C@@H](O)[C@H](n2c(=O)n(CCO)c3c(=O)[nH]c(N)nc32)O1 [Compound 32]
339
CCCn1c(=O)n([C@@H]2O[C@H]([C@@H](O)CC)[C@H](F)[C@H]2O)c2nc(N)[nH]c(=O)c21 [Compound 26]
269
CC[C@H](O)[C@@H]1C[C@@H](O)[C@H](n2c(=O)n(C[C@@H](C)O)c3c(=O)[nH]c(N)nc32)O1 (single isomer, unassigned) [Compound 33]
287

(I) CC[C@H](O)[C@H]1O[C@@H](n2c(=O)n(CC3CC3)c3c(=O)[nH]c(N)nc32)[C@H](O)[C@H]1F [Compound 17]
(II) CC[C@H](O)[C@@H]1C[C@@H](O)[C@H](n2c(=O)n(CC(F)(F)F)c3c(=O)[nH]c(N)nc32)O1 [Compound 43]
Pick the one with the larger EC50: I vs II Answer by stating the label of the chosen item.
I

====

Tested on: hPBMCs (Human Peripheral Blood Mononuclear Cells)
Assay: Induction of interferon-α in hPBMCs in vitro
Assay type: cell-based
Details: Donor 3; maximum IFN at any concentration of the evaluated range
Protocol: Treatment of hPBMCs with a TLR7 agonist typically induces some production of interferon-α as well as lesser amounts of a variety of other cytokines and chemokines. […] Secreted interferon-α production is measured using an a multisubtype interferon-α ELISA kit like those from PBL Assay Sciences or specifically as IFNα2a as part of a panel of cytokines and chemokines using luminex methodologies. […] IFNmax is the maximum amount of IFN observed at any concentration across the evaluated concentration range. […]
Here, each record is paired with measured Donor 3 IFNmax data.
Kindly provide the numeric value in pg/mL only, without the unit symbol.

C#CCn1c(=O)n([C@@H]2O[C@H]([C@@H](O)CC)C[C@H]2O)c2nc(N)[nH]c(=O)c21
5623

Form field: Donor 3 IFNmax recorded for CC(C)Cn1cnc2c(N)nc3ccccc3c21 [Imiquimod, reference compound] with hPBMCs (Human Peripheral Blood Mononuclear Cells) (enter value)
1350

Given the entry CC[C@H](O)[C@@H]1C[C@@H](O)[C@H](n2c(=O)sc3c(=O)[nH]c(N)nc32)O1 [Compound A, reference compound] , what Donor 3 IFNmax was observed with hPBMCs (Human Peripheral Blood Mononuclear Cells)?
2243

Please provide the recorded Donor 3 IFNmax for C#CCn1c(=O)n([C@@H]2O[C@H]([C@H](O)CC)C[C@H]2O)c2nc(N)[nH]c(=O)c21 , tested on hPBMCs (Human Peripheral Blood Mononuclear Cells).
3110

====

Target: human TLR7 (Homo sapiens)
Construct: host or cells: HEK293
Test: TLR7 reporter cell assay (HEK293 cells stably expressing human TLR7 with NF-κB-driven SEAP reporter)
Format: cell-based
Conditions: HEK293, read-out: Response at 500 μM Compound as a Percent of Resiquimod Response
Source text: The engagement of TLRs by cognate ligands triggers downstream signaling cascades, leading to the activation of NF-κB and other transcription factors which initiate various immunomodulatory effects. The human embryonic kidney cell line, HEK293, is essentially non-responsive to TLR agonists, but ectopic expression of TLRs in these cells allows cognate agonists to activate endogenous NF-κB. Accordingly, the HEK293-TLR-NF-κB inducible reporter system is used to assay TLR agonists. […]
Reported Emax at 500 µM values for a set of molecules
Expressed in %, but write only the number.

C#CCn1c(=O)n([C@@H]2O[C@H]([C@@H](O)C(F)(F)F)C[C@H]2O)c2nc(N)[nH]c(=O)c21
72
C#CCn1c(=O)n([C@@H]2O[C@H]([C@H](O)CC)[C@H](F)[C@H]2O)c2nc(N)[nH]c(=O)c21
6

Could you now consider this next molecule?
Returns the measured Emax at 500 µM for the input molecule. Input: C#CCn1c(=O)n([C@@H]2O[C@H](C(=O)CC)C[C@H]2O)c2nc(N)[nH]c(=O)c21
40
